testTarget: T1, 人FGL1-his蛋白(Sinobio;Cat:13484-H08B) (human, UniProt Q08830 23-312)
T1 construct: Bought protein; also called 重组人FGL1-his蛋白; not shown: his tag
T1 sequence (looked up): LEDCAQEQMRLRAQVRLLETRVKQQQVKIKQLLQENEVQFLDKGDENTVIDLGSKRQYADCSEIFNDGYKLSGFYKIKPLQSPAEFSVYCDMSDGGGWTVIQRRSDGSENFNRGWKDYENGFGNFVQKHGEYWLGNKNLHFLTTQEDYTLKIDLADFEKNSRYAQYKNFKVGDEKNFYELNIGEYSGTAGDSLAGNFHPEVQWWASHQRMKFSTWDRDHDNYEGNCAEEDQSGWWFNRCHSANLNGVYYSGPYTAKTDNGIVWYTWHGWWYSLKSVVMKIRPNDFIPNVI
experimentSummary: ELISA, plate coated with human FGL1-his

| binder | binding result |
| --- | --- |
| SH-10 (antibody, human IgG1, V domains shown, Heavy-chain-only antibody from the alpaca immune phage library; expressed in CHO cells; also called 抗体SH-10) VH: EVQLVESGGGLVQPGGSLRLSCAASGDTLDYYAIGWFRQAPGKEREGVSCIRSSGSGPHYSDSVQDRFIISRDNARGTVYLQMNSLKPEDTAVYYCAATEGFYCSPTLSQGEYDYWGQGTQVTVSS | binds |
| SH-03 (antibody, V domains shown, From hybridoma; also called 抗体SH-03; not shown: 轻链恒定区) VH: QVQLQQSGPELVKPGASVKISCKASGYTFTDYYINWLRQKPGQGLEWIGWIYPGSANTNYNEKFKGKAILTVDTSSSTAYMQLSSLTSEDTAVYFCARWLLRSAYWGQGTLVTVSA VL: DIVLSQSPAILSASPGEKVTMTCRASSSVSYMYWYQQKPGSSPKPWIYATSNLASGVPARFSGSGSGTSYSLTISRVEAEDAATYYCQQWSSNPYTFGGGTKLEIK | binds |
| SH-06 (antibody, V domains shown, From the human natural phage display library; also called 抗体SH-06; not shown: 轻链恒定区) VH: QVQLQESGPGLVKPSQTLSLTCTVSGGSISSGGYYWSWIRQHPGKGLEWIGYIYYSGSTYYNPSLKSRVTISVDTSKNQFSLKLSSVTAADTAVYYCARDSVMGYAPRVRAFDIWGQGTMVTVSS VL: QSALTQPPSASGTPGQRVTISCSGSSSNIGTNTVNWYQQLPGTAPKLLIYSTNQRPSGVPDRFSGSKSGTSASLAISGLQSEDEADYYCSSWAGDLNGRLFGGGTKLTVL | binds |
